# System: MS2 coat protein
# protocolText: apparent KD of MS2 coat protein, switch OFF state (with FMN for OFF switches, without FMN for ON switches); designed switch direction (-1 OFF switch, 1 ON switch): 1; higher = weaker reporter binding
# measurementParameters: FMN input: 0 or 200 uM; Eterna round: R93 (includes R88 designs)
measuredAttribute: apparent KD of MS2 coat protein (nM)
Give bare numbers, in nM.

These solved cases illustrate the format of a correct answer.
- chainSequence: "GGGUAAGAGAGAGAGGAUAUCCAAAGGAAAACAUGAGGAUCACCCAUGUAGAAGGUAGGAAAUUGGGAGAAGGCUCAAGAGAGAG [salish99-ss2-136]"
  result: 29.7
- chainSequence: "GAAGACAUAGUUCAGGAUAUAGGAAUAGUCACAUGAGGAUCACCCAUGUGCAUUUAUAUGCGCACUUAGAAGGGAGGUAGUUAUC [SameState2 Malc#23]"
  result: 25
- chainSequence: "GGAGCCGGUACUGAGGAUAUUCAUAUUAAAACAUGAGGAUCACCCAUGUAGGCCAGAAGGCCUUGGGAGAAGGCAGACCAGCUCG [Atgexeedri]"
  result: 273
- chainSequence: "AGGAAACAUGAGGAUCACCCAUGUAAAGAUGGGCGAGGAUAUCGAAAGAAAAGAAAGAAACGAGAAGGCGCAAAAG [Flamingo]"
  result: 240
- chainSequence: "GAAAUAAAAACACAGGAUAUCCAAAAGAAAACAUGAGGAUCACCCAUGUAAAGAAAAUAAAAAUGGGAGAAGGGUGAAAAUAAAA [Mat - Same State 2 - JL mod - D26]"
  result: 41.3

Give me apparent KD of MS2 coat protein for each of these sequences, listed below.
1. AGGAGACAUGAGGAUCACCCAUGUGCACGUGGAGGAGGAUAUGCUAGUAGAAGAUAGAAUGCAGAAGGCCUAAGAA [JR_SameState1_Sub3]
2. AGAAAACAUGAGGAUCACCCAUGUAGAAAUAUGGGAGGAUAUACGAAGACGAAAGUCGAAGUAGAAGGCCUAAAGA [Mat - Same State 1 - Meechl mod - D126]
3. UGUAGGAAGAGAGAGGAUAUCCAAAGGAAAACAUGAGGAUCACCCAUGUAAAAGGUAGGAAAUUGGGAGAAGGCUCAAGAGAGAG [salish99-ss2-082]
4. AGAAUAAAAAGAGAGGAUAUCCAUAAGAAAACAUGAGGAUCACCCAUGUGAAAGAUAAUAAAAUGGGAGAAGGCUCAAAAUAAGA [Topaz 45]
5. AAAAUACAUGAGGAUCACCCAUGUGAGUCGAACGCAGGAUAUGCCCGUUGAAAAGGGCGGGCAGAAGGGUGCCGAA [SameState1-IV]
6. AACAGACAUGAGGAUCACCCAUGUAGAAUUAUGGGAGGAUAUACAAAGACGAGAGUCAGAGUAGAAGGCCUAGGAC [salish99-ss1-163]

Result:
35.3
50.8
52.7
20.2
61.7
71.2

Ask: Specify reported apparent KD of MS2 coat protein for the sequence shown: AUUCCAAAUAGUCAGGAUAUCAGGAGUAAGACAUGAGGAUCACCCAUGUACUUAGUAAAAGUAACUGAGAAGGGACAGGGUGUAA [JR_SS002_Sub406]
Result: 24.2

---

# Test system: MS2 coat protein
# protocolText: apparent KD of MS2 coat protein; designed switch direction (-1 OFF switch, 1 ON switch): -1; higher = weaker reporter binding
# measurementParameters: Eterna round: R95; input ligand: microRNA oligo, concentration not stated
measuredAttribute: apparent KD of MS2 coat protein (nM)
Numbers only, in nM.

These solved cases illustrate the format of a correct answer.
- chainSequence: "AAUAACAAGUAGAUCCUAAACAUGAGGAUCACCCAUGUGCUCGUCUUGUAAAGUACUAUCACGAAAGUGAUAGUACA [Sensor 3, v1 - 58] (puzzle: Sensor v3, turn-off variant 1)"
  unitAbbreviation: "nM"
  apparent KD of MS2 coat protein: 360
- chainSequence: "GUUAAACAUGAGGAUCACCCAUGUAAGGAUAUGCUGCGGUCGCGAUGAAGUGACUGCAGCAGAAGGUACAAUUG [Mat - Mod of JL D52] (puzzle: Exclusion 1)"
  unitAbbreviation: "nM"
  apparent KD of MS2 coat protein: 88.8
- chainSequence: "AAGAAACAUGAGGAUCACCCAUGUGAGGAUAUGAGCAAGAAAAGAAAAGAAAGAAGAAUCAGAAGGCACAAAGG [salish99-ex1_r3_050] (puzzle: Exclusion 1)"
  unitAbbreviation: "nM"
  apparent KD of MS2 coat protein: 1.1
- chainSequence: "GAGGAACAUGAGGAUCACCCAUGUAAGGAUAUGCAAAGAGAGAAAGAAGAAGGAGAAAGCAGAAGGUACAAGGA [JR_Exclu1_Sub073] (puzzle: Exclusion 1)"
  unitAbbreviation: "nM"
  apparent KD of MS2 coat protein: 35.1
- chainSequence: "GAGAAACAUGAGGAUCACCCAUGUGAGGAUAUGCGUACGUUGUCCGUAGGCGACGUGCGCAGAAGGCGCAAAAG [Mat - Mod of JL D87] (puzzle: Exclusion 1)"
  unitAbbreviation: "nM"
  apparent KD of MS2 coat protein: 53.5
- chainSequence: "AGUAGUAGUAUCCGAUCCUACAUGAGGAUCACCCAUGUAGCUGGACGUGCACGCGAUGCUCGUCAGACUACCAGAUG [salish99_TOv1_r3_044] (puzzle: Sensor v3, turn-off variant 1)"
  unitAbbreviation: "nM"
  apparent KD of MS2 coat protein: 131

Give me apparent KD of MS2 coat protein for each of these sequences, listed below.
1. UUGAUGUGAGGAUAUGUGAUCUGCCUUCUAUAUAGAUGAUUACAGAAGGCACAUGAGGAUCACCCAUGUAGAUC [Ex4 - 3 - 24] (puzzle: Exclusion 4)
2. AAUAACAAGUAAGAUCCUAACAUGAGGAUCACCCAUGUGCUCGUCUUGUAAAGUACUAUCACGAAAGUGAUAGUACA [Sensor 3, v1 - 51] (puzzle: Sensor v3, turn-off variant 1)
3. CCGGGUUAUGUUAGGAUAUGUAGGCCGCAACCGGAACAGAAGGGACAUGAGGAUCACCCAUGUGAUAUUCCCGG [Onxexe] (puzzle: Brourd's mod of Exclusion 4)
4. GUGUACGGAGGAUAUAUGUGGGCAGGCUGACCUGCAGCUUCACAUGAGGAUCACCCAUGUAGAAGGCUGUACAC [Mat - Exclusion 2 - Mod of Hyphema - D99] (puzzle: Exclusion 2)

Result:
1. 49.2
2. 295
3. 17.5
4. 20.7
